system: OVCAR-8; assay: NCI tumour cell line growth inhibition, 48 h
The source made the active and inactive calls. Cut-off read from the data, not from the text of the source: active = GI50 up to about 1.1 µM and inactive = higher.
OBSERVABLE: GI50

>>> assay_value("C=C(C)CN(CC#N)CC(=C)C")
"> 100 µM (inactive)"
>>> assay_value("C/C=C(/C)C(=O)O[C@H]1[C@H]2[C@@H]([C@@H](OC(C)=O)[C@H](C)C(=O)[C@@]34C[C@@H](C)C(=O)[C@]3(/C=C(\\C)[C@H]1OC(C)=O)O4)C2(C)C")
"3.48 µM (inactive)"
>>> assay_value("COc1ccc2cc3nc(O)cc(O)c3cc2c1OC")
"> 100 µM (inactive)"
>>> assay_value("CN(/C(=N\\O)c1ccccc1)c1ccccc1")
"24.8 µM (inactive)"
>>> assay_value("O=C(O)/C(=C\\c1ccccc1Cl)S(=O)(=O)c1ccccc1")
"> 100 µM (inactive)"
>>> assay_value("CS(=O)(=O)c1ccc(C2=C(c3ccccc3)C(=O)OC2)cc1 [ROFECOXIB]")
"> 100 µM (inactive)"
>>> assay_value("Cn1c(=S)c2nc(SCc3cccnc3)[nH]c2n(C)c1=O")
"> 100 µM (inactive)"
>>> assay_value("OC(COc1cccc2ccccc12)CN1CCOCC1 (stereo not drawn)")
"> 100 µM (inactive)"

###

test system: NCI-H226; experiment: NCI tumour cell line growth inhibition, 48 h
Calls of active or inactive are those of the source. Rule as the data show it: active = GI50 up to about 1.1 µM and inactive = higher.
Catalogue of compounds with associated GI50
OBSERVABLE: GI50

>>> assay_value("O=C1C2Nc3ccccc3SC2C(=O)N1c1cccc([N+](=O)[O-])c1 (stereo unspecified)")
"> 86.9 µM (inactive)"
>>> assay_value("COC(=O)C1=C(O)CCCC(C2CCCCC(=O)C2C(=O)OC)=C1 (stereo unspecified)")
"27.9 µM (inactive)"
>>> assay_value("O=S(=O)(O)c1cc(/N=N/c2cc(S(=O)(=O)O)c3ccccc3c2O)ccc1/C=C/c1ccc(/N=N/c2cc(S(=O)(=O)O)c3ccccc3c2O)cc1S(=O)(=O)O")
"270 µM (inactive)"
>>> assay_value("O=CNNC(=O)Nc1cccc2ccccc12")
"67.1 µM (inactive)"
>>> assay_value("C=C1CC(CC)(CCN2C(=O)c3ccccc3C2=O)OC1=O (stereo unspecified)")
"13.8 µM (inactive)"
>>> assay_value("O=C1c2ccccc2-c2nc(-c3cccs3)cc3c2c1nc1ccccc13")
"47.8 µM (inactive)"
>>> assay_value("O=C1CCCC/C1=C1/SC(=N/c2ccccc2)/C(=N\\c2ccccc2)N1c1ccccc1")
"23.4 µM (inactive)"
>>> assay_value("CCCCNc1nc(C#N)c(N)s1")
"> 100 µM (inactive)"
>>> assay_value("CCCCNS(=O)(=O)c1ccc(-c2ccc3c(c2)-c2ccc(S(=O)(=O)NCCCC)cc2S3(=O)=O)cc1")
"12.6 µM (inactive)"
>>> assay_value("COc1cc(C(=O)N(C(=S)OC23CC4CC(CC(C4)C2)C3)c2ccccc2)cc(OC)c1OC")
"21.5 µM (inactive)"
>>> assay_value("CC[C@@H]1CC[C@@H]2[C@H](CC[C@]3(C)[C@@H](O)CC[C@@H]23)[C@H]1CO")
"> 100 µM (inactive)"

###

Item-by-item account of GI50
test system: A549; test: NCI tumour cell line growth inhibition, 48 h
Activity calls are given as the source filed them. No stated cut-off is given here; in the data, active = GI50 up to about 1.1 µM and inactive = higher.
OBSERVABLE: GI50

>>> assay_value("COC(=O)C(CC(=O)Nc1ccc(Cl)c(Cl)c1)C(=O)C(=O)Nc1ccc(Cl)c(Cl)c1 (stereo not drawn)")
"> 100 µM (inactive)"
>>> assay_value("CCOC(=O)C1C(=O)CC(C)(O)C(C(=O)OCC)C1c1ccc(N(C)C)cc1 (stereo not drawn)")
"> 100 µM (inactive)"
>>> assay_value("COC1(OC)c2no[n+]([O-])c2CCC1O (stereo not drawn)")
"> 100 µM (inactive)"
>>> assay_value("CC1CC(=O)C(CC(=O)O)C1C(C(=O)C(=O)Nc1c(C#N)cccc1[N+](=O)[O-])[N+](=O)[O-] (stereo not drawn)")
"> 100 µM (inactive)"
>>> assay_value("COc1cccc(-c2cccc(SC)n2)n1")
"23.8 µM (inactive)"
>>> assay_value("Nc1ncnc2c1ncn2C1C=CC(COS(N)(=O)=O)C1 (stereo not drawn)")
"36.2 µM (inactive)"
>>> assay_value("CCOC(=O)C(C(=O)c1ccccc1C(=O)OC)=P(c1ccccc1)(c1ccccc1)c1ccccc1")
"> 10 µM (inactive)"
>>> assay_value("C/C(CC(=O)Nc1ccc(C)c(C)c1)=N\\NC(N)=S")
"> 100 µM (inactive)"

// provenance: ChEMBL document CHEMBL1201862
